The reported numbers originate from ChEMBL document CHEMBL1137838.

Measured IG50, listed per entry for reference.
System: A498
method.description: Concentration causing 50% inhibition of cancer cell growth against human renal A498 cell line
Format: functional
Report the value in µM with no unit label.

// known answers, use as guide
[
  {
    "molecule": "CC(=O)O[C@@H]1COC(=O)/C1=C/C[C@@H]1[C@@]2(CC[C@@H]3[C@](C)(CO)[C@H](O)CC[C@]31C)CO2",
    "IG50 (µM)": 7
  },
  {
    "molecule": "C=C1CC[C@@H]2[C@](C)(CO)[C@H](O)CC[C@@]2(C)[C@@H]1C/C=C1/C(=O)OC[C@H]1O [ANDROGRAPHOLIDE]",
    "IG50 (µM)": 30
  },
  {
    "molecule": "C[C@]1(CO)[C@H]2CC[C@@]3(CO3)[C@@H](C/C=C3/C(=O)OC[C@H]3OC(=O)/C=C/c3ccccc3)[C@]2(C)CC[C@H]1O",
    "IG50 (µM)": 9
  }
]

Now for another entry.
C=C1CC[C@@H]2[C@](C)(CO)[C@H](O)CC[C@@]2(C)[C@@H]1C/C=C(/C(=O)O)[C@H](O)CO has a reported IG50 of 4
